tgt: POT-3 (Caenorhabditis elegans, UniProt G5EFG7 1-215)
Sequence: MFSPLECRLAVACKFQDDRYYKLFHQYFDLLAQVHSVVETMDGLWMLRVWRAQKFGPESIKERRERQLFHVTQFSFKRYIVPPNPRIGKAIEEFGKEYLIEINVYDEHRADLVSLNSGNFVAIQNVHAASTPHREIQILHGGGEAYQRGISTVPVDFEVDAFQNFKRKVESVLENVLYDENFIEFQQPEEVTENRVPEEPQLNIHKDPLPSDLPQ
protocol.summary: EMSA
test.context: room temperature; apparent; EMSA: 20 mM Tris-HCl pH 8.0, 50 mM NaCl, 1 mM MgCl2, 5 mM DTT, 50 ug/ml BSA, 4% Ficoll 400, on ice 10 min; competition and S4 Kd: same salts with 0.001% …
readout.kind: Kd (nM)
Use nM as the unit, but write only the number.

Q) Item under review: fragment 7 / 12mer, (TTAGGC)2 3' overhang . Reported Kd?
A) 5
